biological target: GluA2flip(R)-CNIH3 (A2R-C3 TetON HEK293 cells) (Homo sapiens, UniProt P42262, Q607R); test: VSD assay (counter-screen, CRC) on A2R-C3 cells
Sequence (P42262 25-883 isoform P42262-2 Q607R limits assumed): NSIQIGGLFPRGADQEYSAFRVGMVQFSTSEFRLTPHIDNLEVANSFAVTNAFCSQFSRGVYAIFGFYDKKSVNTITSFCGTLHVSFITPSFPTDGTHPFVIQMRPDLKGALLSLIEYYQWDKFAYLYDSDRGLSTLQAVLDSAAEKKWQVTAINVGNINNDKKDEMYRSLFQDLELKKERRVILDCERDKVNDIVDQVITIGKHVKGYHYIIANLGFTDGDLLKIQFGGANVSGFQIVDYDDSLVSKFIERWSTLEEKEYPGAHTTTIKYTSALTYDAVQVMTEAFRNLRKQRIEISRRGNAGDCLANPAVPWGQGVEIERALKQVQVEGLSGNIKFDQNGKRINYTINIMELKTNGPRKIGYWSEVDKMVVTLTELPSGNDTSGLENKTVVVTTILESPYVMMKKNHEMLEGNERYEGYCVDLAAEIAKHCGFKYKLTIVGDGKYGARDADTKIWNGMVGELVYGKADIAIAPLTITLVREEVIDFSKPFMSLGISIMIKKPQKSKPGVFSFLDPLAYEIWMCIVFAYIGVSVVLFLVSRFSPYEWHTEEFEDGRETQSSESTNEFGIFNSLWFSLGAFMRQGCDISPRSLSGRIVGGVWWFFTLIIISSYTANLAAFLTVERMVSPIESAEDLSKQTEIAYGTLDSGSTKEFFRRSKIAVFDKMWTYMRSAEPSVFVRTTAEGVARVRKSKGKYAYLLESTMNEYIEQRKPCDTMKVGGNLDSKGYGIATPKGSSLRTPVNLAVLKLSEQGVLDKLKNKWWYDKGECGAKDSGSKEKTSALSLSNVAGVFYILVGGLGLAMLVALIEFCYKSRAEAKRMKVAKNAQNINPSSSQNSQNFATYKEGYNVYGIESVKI
Sequence (Q8TBE1 whole entry partner): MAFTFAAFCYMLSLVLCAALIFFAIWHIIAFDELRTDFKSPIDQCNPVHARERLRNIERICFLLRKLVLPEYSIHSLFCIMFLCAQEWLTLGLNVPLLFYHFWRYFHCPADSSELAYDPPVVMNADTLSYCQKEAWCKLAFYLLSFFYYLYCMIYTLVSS
endpoint name: IC50 (µM)
Answers are plain numbers, in µM.

1. CCCc1c(C(=O)NC2CCCCC2)nnn1-c1ccccc1 [VU0612951]    0.87

In the following, a different compound is considered.
Lab request: please report IC50 under test system GluA2flip(R)-CNIH3 (A2R-C3 TetON HEK293 cells) (Homo sapiens, UniProt P42262, Q607R) for COc1ccccc1CC(=O)NC1(c2nc(-c3ccsc3)no2)CCCCC1 [VU0539491]
3.2

---

Kindly state EC50 for each of the entries shown.
target: GluA2flip(R)-stargazin (A2R-stg TetON HEK293 cells) (Homo sapiens, UniProt P42262, Q607R); assay: Voltage-sensitive dye (VSD) assay (primary screen, counter-screen, CRC) on A2R-stg cells
Sequence (P42262 25-883 isoform P42262-2 Q607R limits assumed): as the sequence (P42262 25-883 isoform P42262-2 Q607R limits assumed) above
Sequence (Q9Y698 whole entry partner): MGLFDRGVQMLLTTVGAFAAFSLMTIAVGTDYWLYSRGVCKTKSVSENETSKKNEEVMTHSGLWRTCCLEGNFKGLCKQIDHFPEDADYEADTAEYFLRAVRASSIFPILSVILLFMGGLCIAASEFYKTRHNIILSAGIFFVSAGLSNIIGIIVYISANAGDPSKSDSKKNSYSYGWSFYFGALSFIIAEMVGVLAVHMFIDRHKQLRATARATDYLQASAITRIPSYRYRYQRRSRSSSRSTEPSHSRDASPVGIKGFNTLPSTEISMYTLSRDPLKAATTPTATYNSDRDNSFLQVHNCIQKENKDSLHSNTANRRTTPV
Numbers only, in nM.

Would you please look over these solved cases?
1) COc1ccccc1CC(=O)NC1(c2nc(-c3ccsc3)no2)CCCCC1 [VU0539491]    4200
2) NS(=O)(=O)c1cc2c(cc1Cl)NC(C1CC3C=CC1C3)NS2(=O)=O (stereo not shown) [CTZ, cyclothiazide]    900
3) O=C(c1ccc2c(c1)OCCO2)N1CCCCC1 [CX-546]    59400

Moving on to another compound below.
EC50 for O=C(Cc1cc(-c2ccc3c(c2)OCCO3)on1)NCc1ccccc1 [VU0627849] ?
860

---

biological target: GluA2flip(Q)-CNIH3 (A2Q-C3 cells) (Homo sapiens, UniProt P42262); test: Calcium flux (Fluo-8) compound CRC assay on A2Q-C3 cells
Sequence (P42262 25-883 isoform P42262-2 limits assumed, one chain of several): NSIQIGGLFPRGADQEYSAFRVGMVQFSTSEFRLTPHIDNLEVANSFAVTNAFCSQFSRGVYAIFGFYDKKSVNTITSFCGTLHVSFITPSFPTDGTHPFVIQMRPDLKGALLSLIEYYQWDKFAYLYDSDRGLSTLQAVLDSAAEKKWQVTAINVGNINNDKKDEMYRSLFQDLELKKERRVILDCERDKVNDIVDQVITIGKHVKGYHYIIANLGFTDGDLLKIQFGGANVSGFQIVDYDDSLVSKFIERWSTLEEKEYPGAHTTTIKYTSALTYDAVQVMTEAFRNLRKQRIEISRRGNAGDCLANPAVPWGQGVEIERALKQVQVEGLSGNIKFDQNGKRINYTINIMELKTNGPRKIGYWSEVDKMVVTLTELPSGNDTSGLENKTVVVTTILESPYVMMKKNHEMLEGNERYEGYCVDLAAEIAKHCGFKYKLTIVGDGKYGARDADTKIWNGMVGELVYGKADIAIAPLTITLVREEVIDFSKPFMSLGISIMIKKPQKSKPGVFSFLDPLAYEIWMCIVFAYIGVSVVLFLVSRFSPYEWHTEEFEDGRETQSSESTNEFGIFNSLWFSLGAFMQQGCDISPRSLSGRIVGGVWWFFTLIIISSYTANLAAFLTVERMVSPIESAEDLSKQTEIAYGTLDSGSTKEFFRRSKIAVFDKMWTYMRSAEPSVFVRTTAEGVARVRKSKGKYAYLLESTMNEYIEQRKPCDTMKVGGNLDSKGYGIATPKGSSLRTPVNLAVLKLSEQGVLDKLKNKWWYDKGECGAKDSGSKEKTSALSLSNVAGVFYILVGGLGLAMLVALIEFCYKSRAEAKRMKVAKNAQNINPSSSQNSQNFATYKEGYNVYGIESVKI
endpoint name: EC50 (µM)
Numbers only, in µM.

1. O=C(Cc1cc(-c2ccc3c(c2)OCCO3)on1)NCc1ccccc1 [VU0627849]    3.1

Consider the record given below.
Would you kindly share the measured EC50 for NS(=O)(=O)c1cc2c(cc1Cl)NC(C1CC3C=CC1C3)NS2(=O)=O (centres unmarked) [CTZ, cyclothiazide] ?
0.4
